Reference for the values: patent US20260258115A1

Target: RSV F on RSV subtype A virus (RSV-A2) (Respiratory Syncytial Virus, subtype A, …, UniProt P03420 26-574)
Assay: cell-based or functional assay
property.name: Neutralization IC50 (RSV subtype A)

binder | test.value
ADI-43641 (antibody, V domains shown, also called Ab 946; Antibody Number 946) VH: EVQLVESGGGLVKPGGSLRLSCAASGFTFSDYYMSWIRQAPGKGLEWVSYISSSSSYTNYADSVKGRFTISRDNAKNSLYLQMNSLRAEDTAVYYCARDFSGQWLVLGYGMDVWGQGTTVTVSS VL: QSVVTQPPSVSGAPGQRVTISCTGSSSNIGAGYDVHWYQQLPGTAPKLLIYGNSNRPSGVPDRFSGSKSGTSASLAITGLQAEDEADYYCQSYDSSLSGPVFGGGTKLTVL | > 25 µg/mL
ADI-41842 (antibody, V domains shown, also called Ab 942; Antibody Number 942) VH: QVQLVQSGAEVKKPGASVRVSCKASGYTFTHYDINWVRQAPGQGLEWMGWINPNSGDTDYAQKFQGRVTMTVDTSISTAYLDLRSLTSADAAVYYCARGGAYATNGYYIIWFDPWGQGTLVTVSS VL: DIVVTQSPSSLSASVGDRVTITCRASQSISRYLNWFQKKPGKAPHLLIYAASILQSEVPSRFSGSGSGTDFTLTISSLQPEDFATYYCQQSYNSPYTFGPGTKVDIK | > 25 µg/mL
